Value source: paper PMC12416549

- Measured target: T1, TNFR1 (Homo sapiens, UniProt P19438)
- T1 chain: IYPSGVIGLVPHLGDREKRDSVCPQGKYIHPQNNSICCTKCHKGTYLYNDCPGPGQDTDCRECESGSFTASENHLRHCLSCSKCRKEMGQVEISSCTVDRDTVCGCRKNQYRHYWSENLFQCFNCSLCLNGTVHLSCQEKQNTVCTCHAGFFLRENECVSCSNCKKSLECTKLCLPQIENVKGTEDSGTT
- Measurement description: yeast display SC50
Result type: apparent Kd (screen) (nM)
I only need the number, in nM, no unit after it.

// solved cases for apparent Kd (screen) follow
{"columns": ["Binder", "Measure unit", "apparent Kd (screen)"],
 "data": [
  ["L94G (designed binder) SMEEEVEKAAKEYEKKKKEAIEKHLEKLKAKDKEAAERFLKELEEAAKEYAKDEAKTMSEEEAKRRAKKYKEKVLLSELSEEEQKEIKEAEEKGVRTILKYVEEAAK", "nM", 2.25],
  ["K29G (designed binder) SMEEEVEKAAKEYEKKKKEAIEKHLEKLGAKDKEAAERFLKELEEAAKEYAKDEAKTMSEEEAKRRAKKYKEKVLLSELSEEEQKEIKEAEEKLVRTILKYVEEAAK", "nM", 0.446],
  ["E78H (designed binder) SMEEEVEKAAKEYEKKKKEAIEKHLEKLKAKDKEAAERFLKELEEAAKEYAKDEAKTMSEEEAKRRAKKYKEKVLLSHLSEEEQKEIKEAEEKLVRTILKYVEEAAK", "nM", 0.49],
  ["K52G (designed binder) SMEEEVEKAAKEYEKKKKEAIEKHLEKLKAKDKEAAERFLKELEEAAKEYAGDEAKTMSEEEAKRRAKKYKEKVLLSELSEEEQKEIKEAEEKLVRTILKYVEEAAK", "nM", 0.869],
  ["E22H (designed binder) SMEEEVEKAAKEYEKKKKEAIHKHLEKLKAKDKEAAERFLKELEEAAKEYAKDEAKTMSEEEAKRRAKKYKEKVLLSELSEEEQKEIKEAEEKLVRTILKYVEEAAK", "nM", 0.539],
  ["K88W (designed binder) SMEEEVEKAAKEYEKKKKEAIEKHLEKLKAKDKEAAERFLKELEEAAKEYAKDEAKTMSEEEAKRRAKKYKEKVLLSELSEEEQKEIWEAEEKLVRTILKYVEEAAK", "nM", 0.49]
]}

INPUT: I am curious: what apparent Kd (screen) value has been reported for K56C (designed binder) SMEEEVEKAAKEYEKKKKEAIEKHLEKLKAKDKEAAERFLKELEEAAKEYAKDEACTMSEEEAKRRAKKYKEKVLLSELSEEEQKEIKEAEEKLVRTILKYVEEAAK ?
OUTPUT: 10.4

INPUT: I am curious: what apparent Kd (screen) value has been reported for E78S (designed binder) SMEEEVEKAAKEYEKKKKEAIEKHLEKLKAKDKEAAERFLKELEEAAKEYAKDEAKTMSEEEAKRRAKKYKEKVLLSSLSEEEQKEIKEAEEKLVRTILKYVEEAAK ?
OUTPUT: 1.54

INPUT: I am curious: what apparent Kd (screen) value has been reported for A36Y (designed binder) SMEEEVEKAAKEYEKKKKEAIEKHLEKLKAKDKEAYERFLKELEEAAKEYAKDEAKTMSEEEAKRRAKKYKEKVLLSELSEEEQKEIKEAEEKLVRTILKYVEEAAK ?
OUTPUT: 0.539

INPUT: I am curious: what apparent Kd (screen) value has been reported for K15S (designed binder) SMEEEVEKAAKEYESKKKEAIEKHLEKLKAKDKEAAERFLKELEEAAKEYAKDEAKTMSEEEAKRRAKKYKEKVLLSELSEEEQKEIKEAEEKLVRTILKYVEEAAK ?
OUTPUT: 0.653

INPUT: I am curious: what apparent Kd (screen) value has been reported for K68V (designed binder) SMEEEVEKAAKEYEKKKKEAIEKHLEKLKAKDKEAAERFLKELEEAAKEYAKDEAKTMSEEEAKRRAVKYKEKVLLSELSEEEQKEIKEAEEKLVRTILKYVEEAAK ?
OUTPUT: 1.27

INPUT: I am curious: what apparent Kd (screen) value has been reported for A30D (designed binder) SMEEEVEKAAKEYEKKKKEAIEKHLEKLKDKDKEAAERFLKELEEAAKEYAKDEAKTMSEEEAKRRAKKYKEKVLLSELSEEEQKEIKEAEEKLVRTILKYVEEAAK ?
OUTPUT: 1.4

INPUT: I am curious: what apparent Kd (screen) value has been reported for K41C (designed binder) SMEEEVEKAAKEYEKKKKEAIEKHLEKLKAKDKEAAERFLCELEEAAKEYAKDEAKTMSEEEAKRRAKKYKEKVLLSELSEEEQKEIKEAEEKLVRTILKYVEEAAK ?
OUTPUT: 0.49

INPUT: I am curious: what apparent Kd (screen) value has been reported for E3T (designed binder) SMTEEVEKAAKEYEKKKKEAIEKHLEKLKAKDKEAAERFLKELEEAAKEYAKDEAKTMSEEEAKRRAKKYKEKVLLSELSEEEQKEIKEAEEKLVRTILKYVEEAAK ?
OUTPUT: 1.4

INPUT: I am curious: what apparent Kd (screen) value has been reported for E3A (designed binder) SMAEEVEKAAKEYEKKKKEAIEKHLEKLKAKDKEAAERFLKELEEAAKEYAKDEAKTMSEEEAKRRAKKYKEKVLLSELSEEEQKEIKEAEEKLVRTILKYVEEAAK ?
OUTPUT: 1.86

INPUT: I am curious: what apparent Kd (screen) value has been reported for E103P (designed binder) SMEEEVEKAAKEYEKKKKEAIEKHLEKLKAKDKEAAERFLKELEEAAKEYAKDEAKTMSEEEAKRRAKKYKEKVLLSELSEEEQKEIKEAEEKLVRTILKYVPEAAK ?
OUTPUT: 0.49
